pIC50 values by entry
Subject Of Test: Integrin alpha-V/beta-6 (Homo sapiens, UniProt P06756+P18564)
Sequence (P06756 31-889 limits assumed): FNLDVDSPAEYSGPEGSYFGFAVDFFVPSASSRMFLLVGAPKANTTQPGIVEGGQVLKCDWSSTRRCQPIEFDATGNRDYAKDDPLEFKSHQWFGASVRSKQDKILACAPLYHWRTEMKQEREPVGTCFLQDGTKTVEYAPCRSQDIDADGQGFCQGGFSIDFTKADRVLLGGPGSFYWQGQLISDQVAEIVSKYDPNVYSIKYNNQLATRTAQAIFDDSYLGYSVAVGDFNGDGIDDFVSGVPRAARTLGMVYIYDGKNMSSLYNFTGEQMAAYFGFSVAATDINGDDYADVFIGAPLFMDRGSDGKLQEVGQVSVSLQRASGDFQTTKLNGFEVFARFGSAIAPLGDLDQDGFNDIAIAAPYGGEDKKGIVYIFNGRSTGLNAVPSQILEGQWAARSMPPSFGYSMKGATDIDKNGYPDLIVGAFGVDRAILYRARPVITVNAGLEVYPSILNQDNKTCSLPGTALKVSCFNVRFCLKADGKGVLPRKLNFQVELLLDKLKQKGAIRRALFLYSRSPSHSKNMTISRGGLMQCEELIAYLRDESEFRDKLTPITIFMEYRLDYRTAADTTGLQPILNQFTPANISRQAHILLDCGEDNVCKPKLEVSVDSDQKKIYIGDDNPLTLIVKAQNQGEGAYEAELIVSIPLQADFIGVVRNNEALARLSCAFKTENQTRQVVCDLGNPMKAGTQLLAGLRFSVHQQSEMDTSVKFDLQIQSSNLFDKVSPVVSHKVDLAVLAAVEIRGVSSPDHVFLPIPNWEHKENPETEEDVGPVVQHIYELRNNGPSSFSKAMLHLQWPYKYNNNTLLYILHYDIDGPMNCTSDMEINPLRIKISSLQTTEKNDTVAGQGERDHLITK
Sequence (P06756 891-1048 limits assumed): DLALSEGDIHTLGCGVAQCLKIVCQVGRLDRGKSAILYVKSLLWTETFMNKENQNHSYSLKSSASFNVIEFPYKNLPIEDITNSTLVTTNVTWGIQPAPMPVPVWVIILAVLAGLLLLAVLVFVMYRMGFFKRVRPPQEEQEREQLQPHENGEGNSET
Sequence (P18564 22-788 limits assumed): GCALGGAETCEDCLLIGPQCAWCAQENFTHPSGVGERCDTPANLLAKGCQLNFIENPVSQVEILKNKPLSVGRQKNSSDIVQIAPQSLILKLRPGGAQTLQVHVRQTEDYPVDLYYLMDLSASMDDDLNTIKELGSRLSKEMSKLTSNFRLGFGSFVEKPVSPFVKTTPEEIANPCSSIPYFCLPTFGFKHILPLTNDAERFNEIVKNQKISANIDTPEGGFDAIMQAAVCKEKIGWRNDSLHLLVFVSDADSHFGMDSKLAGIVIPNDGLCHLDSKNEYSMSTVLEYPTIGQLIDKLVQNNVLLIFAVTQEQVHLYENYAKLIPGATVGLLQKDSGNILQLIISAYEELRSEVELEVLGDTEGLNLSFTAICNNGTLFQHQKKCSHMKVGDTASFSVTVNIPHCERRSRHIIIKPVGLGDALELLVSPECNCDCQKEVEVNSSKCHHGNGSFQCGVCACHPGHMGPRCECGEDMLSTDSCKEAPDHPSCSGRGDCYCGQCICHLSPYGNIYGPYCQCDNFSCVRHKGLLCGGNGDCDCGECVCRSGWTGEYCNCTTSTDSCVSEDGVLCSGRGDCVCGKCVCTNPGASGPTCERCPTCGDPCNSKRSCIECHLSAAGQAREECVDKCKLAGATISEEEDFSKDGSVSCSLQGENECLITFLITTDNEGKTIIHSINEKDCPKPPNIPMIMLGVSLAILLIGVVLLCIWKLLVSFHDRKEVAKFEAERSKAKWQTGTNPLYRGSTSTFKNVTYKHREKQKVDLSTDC
Experiment Summary: Inhibition of LAP binding to human integrin alphavbeta6 receptor after 1 hr by solid-phase binding assay
Format: protein-complex assay
Condition Parameters: read-out: IC50
Non-standard residues stand in square brackets, D forms with d. Residues, ends and D or L forms follow the SMILES beside them. NMeK = CN[C@@H](CCCCN)C(=O)O
When answering, recall that pIC50 equals minus log10 of the concentration in mol/L, and write that number alone.

Past entries and their recorded results:
>>> value_measured("C[C@@H]1NC(=O)[C@@H]2CCCN2C(=O)[C@H]2CCCN2C(=O)[C@H](CCCCN)NC(=O)[C@H](CC(=O)O)NC(=O)CNC(=O)[C@H](CCCNC(=N)N)NC(=O)[C@H](Cc2ccccc2)NC1=O")
6.08
>>> value_measured("CC(C)C[C@@H]1NC(=O)[C@H](C)NC(=O)[C@H](C)NC(=O)[C@H](CC(C)C)NC(=O)[C@H](CC(=O)O)NC(=O)[C@H]([C@@H](C)O)NC(=O)[C@H](CCCNC(=N)N)NC(=O)[C@@H]2CCCN2C(=O)[C@H]2CCCN2C(=O)[C@H](C)NC1=O")
5.81
>>> value_measured("CC(=O)NCCCC[C@H]1C(=O)NCC(=O)N[C@@H](CC(C)C)C(=O)N[C@@H](CCCNC(=N)N)C(=O)NCC(=O)N[C@@H](CC(=O)O)C(=O)N[C@@H](CC(C)C)C(=O)N2CCC[C@@H]2C(=O)N1C (cyclo(RGDL[dP][NMeK](Ac)GL))")
7.00

Input CC(C)C[C@@H]1NC(=O)[C@H](C)NC(=O)[C@H](Cc2ccccc2)N(C)C(=O)[C@H]2CCCN2C(=O)[C@H](CC(C)C)NC(=O)[C@H](CC(=O)O)NC(=O)CNC(=O)[C@H](CCCNC(=N)N)NC1=O , output reported pIC50.
7.13

# return recorded pIC50 for input CC(=O)NCCCC[C@@H]1C(=O)N2CCC[C@H]2C(=O)NCC(=O)N[C@@H](CC(C)C)C(=O)N[C@@H](CCCNC(=N)N)C(=O)NCC(=O)N[C@@H](CC(=O)O)C(=O)N[C@@H](CC(C)C)C(=O)N1C
6.67
